B1: Caulobacter ParB omega fusion; a variant is named by its letters at X, in order, B8GW30 (parent)
chain: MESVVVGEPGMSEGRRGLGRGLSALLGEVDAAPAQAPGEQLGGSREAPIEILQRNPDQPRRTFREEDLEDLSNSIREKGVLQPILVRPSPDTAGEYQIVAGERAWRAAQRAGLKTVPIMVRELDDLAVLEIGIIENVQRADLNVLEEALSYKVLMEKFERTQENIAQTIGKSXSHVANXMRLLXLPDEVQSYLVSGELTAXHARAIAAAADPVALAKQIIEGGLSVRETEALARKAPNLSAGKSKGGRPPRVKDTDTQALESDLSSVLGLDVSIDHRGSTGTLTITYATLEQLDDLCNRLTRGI

# Variants of: B1
# experimentalDetails: one-hybrid fitness for binding NBS DNA (the Noc-binding site; scaled: cognate 1, non-cognate 0); higher = stronger binding
# runConditions: with NBS DNA site
The full ranking holds about 81,000 sequences; the median of “one-hybrid fitness for binding NBS DNA” is about -0.1, and the highest 2% start at about 0.36. The sample holds the highest values, similar sequences and a random draw of the others, so the mix is not that of the screen.
measuredParameter: one-hybrid fitness for binding NBS DNA

{"mut": "TCGR", "measuredParameter": "one-hybrid fitness for binding NBS DNA", "observedValue": "≤ 0.2"}
{"mut": "TRNR", "measuredParameter": "one-hybrid fitness for binding NBS DNA", "observedValue": 0.466}
{"mut": "QRTP", "measuredParameter": "one-hybrid fitness for binding NBS DNA", "observedValue": 0.263}
{"mut": "QYMS", "measuredParameter": "one-hybrid fitness for binding NBS DNA", "observedValue": 0.314}
{"mut": "TRYR", "measuredParameter": "one-hybrid fitness for binding NBS DNA", "observedValue": 0.301}
{"mut": "QMQQ", "measuredParameter": "one-hybrid fitness for binding NBS DNA", "observedValue": "≤ 0.2"}
{"mut": "QPTH", "measuredParameter": "one-hybrid fitness for binding NBS DNA", "observedValue": "≤ 0.2"}
{"mut": "QCTH", "measuredParameter": "one-hybrid fitness for binding NBS DNA", "observedValue": 0.295}
{"mut": "YGMG", "measuredParameter": "one-hybrid fitness for binding NBS DNA", "observedValue": "≤ 0.2"}
{"mut": "QYMY", "measuredParameter": "one-hybrid fitness for binding NBS DNA", "observedValue": 0.453}
{"mut": "TCNR", "measuredParameter": "one-hybrid fitness for binding NBS DNA", "observedValue": "≤ 0.2"}
{"mut": "TRRR", "measuredParameter": "one-hybrid fitness for binding NBS DNA", "observedValue": 0.682}
{"mut": "QMMT", "measuredParameter": "one-hybrid fitness for binding NBS DNA", "observedValue": 0.378}
{"mut": "SALW", "measuredParameter": "one-hybrid fitness for binding NBS DNA", "observedValue": "≤ 0.2"}
{"mut": "APTR", "measuredParameter": "one-hybrid fitness for binding NBS DNA", "observedValue": "≤ 0.2"}
{"mut": "IPPG", "measuredParameter": "one-hybrid fitness for binding NBS DNA", "observedValue": "≤ 0.2"}
{"mut": "PGKG", "measuredParameter": "one-hybrid fitness for binding NBS DNA", "observedValue": "≤ 0.2"}
{"mut": "EWTK", "measuredParameter": "one-hybrid fitness for binding NBS DNA", "observedValue": "≤ 0.2"}
{"mut": "QRTC", "measuredParameter": "one-hybrid fitness for binding NBS DNA", "observedValue": 0.395}
{"mut": "NYHG", "measuredParameter": "one-hybrid fitness for binding NBS DNA", "observedValue": "≤ 0.2"}
{"mut": "QMVQ", "measuredParameter": "one-hybrid fitness for binding NBS DNA", "observedValue": 0.283}
{"mut": "QYMH", "measuredParameter": "one-hybrid fitness for binding NBS DNA", "observedValue": "≤ 0.2"}
{"mut": "MTRR", "measuredParameter": "one-hybrid fitness for binding NBS DNA", "observedValue": 0.273}
{"mut": "PLVT", "measuredParameter": "one-hybrid fitness for binding NBS DNA", "observedValue": "≤ 0.2"}
{"mut": "QCTK", "measuredParameter": "one-hybrid fitness for binding NBS DNA", "observedValue": "≤ 0.2"}
{"mut": "ARGR", "measuredParameter": "one-hybrid fitness for binding NBS DNA", "observedValue": "≤ 0.2"}
{"mut": "RNCT", "measuredParameter": "one-hybrid fitness for binding NBS DNA", "observedValue": "≤ 0.2"}
{"mut": "TCRR", "measuredParameter": "one-hybrid fitness for binding NBS DNA", "observedValue": 0.333}
{"mut": "MRLP", "measuredParameter": "one-hybrid fitness for binding NBS DNA", "observedValue": "≤ 0.2"}
{"mut": "PLDP", "measuredParameter": "one-hybrid fitness for binding NBS DNA", "observedValue": "≤ 0.2"}
{"mut": "YIRF", "measuredParameter": "one-hybrid fitness for binding NBS DNA", "observedValue": "≤ 0.2"}
{"mut": "QMMF", "measuredParameter": "one-hybrid fitness for binding NBS DNA", "observedValue": "≤ 0.2"}
{"mut": "QMKH", "measuredParameter": "one-hybrid fitness for binding NBS DNA", "observedValue": 0.559}
{"mut": "CYAV", "measuredParameter": "one-hybrid fitness for binding NBS DNA", "observedValue": "≤ 0.2"}
{"mut": "QRTK", "measuredParameter": "one-hybrid fitness for binding NBS DNA", "observedValue": 0.414}
